B1: Ankyrin-2, residues 3571 to 3650; numbered along this chain, Q01484 (parent)
chain: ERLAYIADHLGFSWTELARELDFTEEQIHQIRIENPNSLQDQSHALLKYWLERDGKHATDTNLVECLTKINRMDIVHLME

- Variants of: B1
- ASSAY EXPLANATION: abundance fitness (aPCA) (normalised: wild type 0, dead -1); higher = more abundant; growth selection in yeast, the domain comes from the species named
- EXPERIMENTAL PARAMETERS: Homo sapiens
Assign Met whenever abundance fitness does not fall below -0.04; assign Not met whenever it does.

Answered examples (10):
   mutant  label_class
0    R53M      Not met
1    E16S          Met
2    F23K      Not met
3    A58L          Met
4    E16D          Met
5    L47D      Not met
6    K56H          Met
7    T24V      Not met
8    N35R          Met
9    L10W      Not met

Does abundance fitness meet or surpass -0.04 for K56Q ?
Not met

Do the same for I28N please
Not met

Do the same for L39W please
Not met

Do the same for E16T please
Met

Do the same for G55W please
Not met
